test system: NCI-H522 lung; experiment: NCI tumour cell line growth inhibition, 48 h; in the data active means GI50 below about 0.43 µM; inactive means the rest
Assign a class; possible classes are true (active), false (inactive)

[[record]]
smiles_str = "COc1ccc(-c2cn[nH]c2-c2cc(OC)c3c(c2)OCO3)cc1"
target_or_system = "NCI-H522 lung"
cat = "true"


Below: the item to evaluate.
Exercise: Could you please tell me the result logged for Cc1ccc(-c2csc(/N=C3\C(=O)Nc4ccccc43)n2)cc1 in this assay?
Solution: false

====

Answer each item with its documented TGI.
test system: OVCAR-5 ovarian; test: NCI tumour cell line growth inhibition, 48 h

Use the examples below as a reference point.
[[record]]
smiles_str = "COc1cccc(-c2nc3sccn3c2-c2ccnc(NCCCNS(=O)(=O)c3cccc(F)c3)c2)c1"
parameter_measured = "TGI"
recorded_result = "> 100 µM"

[[record]]
smiles_str = "COc1ccc(-c2cn[nH]c2-c2cc(OC)c3c(c2)OCO3)cc1"
parameter_measured = "TGI"
recorded_result = "36.6 µM"

[[record]]
smiles_str = "CCOC(=O)c1ccc(Nc2c3c(nc4ccccc24)CCCC3)cc1"
parameter_measured = "TGI"
recorded_result = "> 100 µM"

[[record]]
smiles_str = "COc1ccc(S(=O)(=O)Nc2ccccc2C(=O)O)cc1"
parameter_measured = "TGI"
recorded_result = "> 100 µM"


# context switch: different compound, same TGI
Exercise: Entry COc1ccc(/C=N/n2cnc3c(sc(=S)n3-c3ccccc3)c2=O)cc1 has what TGI?
Solution: > 100 µM

====

system: HCT-15 colon; assay: NCI tumour cell line growth inhibition, 48 h; in the data active = GI50 below about 0.43 µM; inactive = the rest
Assign a class; possible classes are active, inactive

Example cases with answers are listed next.
[[record]]
compound = "Cn1cc(C2=C(c3cn(CCCCN)c4ccccc34)C(=O)NC2=O)c2ccccc21"
cat = "inactive"

[[record]]
compound = "CN(C)CCCOc1ccc(-c2ccc3ncc4c(c3c2)n(C2CCOCC2)c(=O)n4C)cn1"
cat = "inactive"

[[record]]
compound = "CCOC(=O)N1CCN(c2nc(Nc3cc(C)[nH]n3)c3ccccc3n2)CC1"
cat = "inactive"

[[record]]
compound = "COc1cc(/C=C2\\C(=O)Nc3cc(C)c(O)cc32)cc(OC)c1OC"
cat = "inactive"

[[record]]
compound = "[Cl-].[O-]/N=C(\\c1ccccc1)c1ccccn1.[O-]/N=C(\\c1ccccc1)c1ccccn1.[O-]/N=C(\\c1ccccc1)c1ccccn1.[Sm+3]"
cat = "inactive"

[[record]]
compound = "COc1ccc(-c2cn[nH]c2-c2cc(OC)c3c(c2)OCO3)cc1"
cat = "active"


Exercise: Could you please tell me the result logged for COc1ccc(S(=O)(=O)N2CC(C)(C)CN(S(=O)(=O)c3ccc(OC)cc3)C2C(=O)NO)cc1 in this assay?
Solution: inactive

Exercise: Please answer likewise for OCc1ccc(-c2ccc(-c3ccc(CO)o3)[se]2)o1
Solution: inactive

Exercise: Please answer likewise for CCOc1ccc2nc(SCc3nc4n(n3)S(=O)(=O)c3ccccc3N4C)sc2c1
Solution: inactive

Exercise: Please answer likewise for CCC[CH2][Sn]1([CH2]CCC)[O]CC(Cc2ccccc2)[O]1 (stereo not given)
Solution: inactive

Exercise: Please answer likewise for Nc1ccc(C2=NN(c3ccccc3)C(c3ccc(Cl)cc3)C2)cc1 (stereo not given)
Solution: inactive

Exercise: Please answer likewise for Cc1nc(SCC(=O)Nc2nc(-c3ccc(Cl)cc3)cs2)n(Nc2ccccc2)c1C
Solution: inactive

Exercise: Please answer likewise for O=S(=O)(Nc1ccccc1Cl)c1ccc(-c2cnc(C3CC3)o2)cc1
Solution: active

Values from PubChem BioAssay (NCI)
